The reported numbers originate from ChEMBL document CHEMBL1159167.

# TESTED ON: Epidermal growth factor receptor (Homo sapiens, UniProt P00533)
# Sequence (P00533 whole entry): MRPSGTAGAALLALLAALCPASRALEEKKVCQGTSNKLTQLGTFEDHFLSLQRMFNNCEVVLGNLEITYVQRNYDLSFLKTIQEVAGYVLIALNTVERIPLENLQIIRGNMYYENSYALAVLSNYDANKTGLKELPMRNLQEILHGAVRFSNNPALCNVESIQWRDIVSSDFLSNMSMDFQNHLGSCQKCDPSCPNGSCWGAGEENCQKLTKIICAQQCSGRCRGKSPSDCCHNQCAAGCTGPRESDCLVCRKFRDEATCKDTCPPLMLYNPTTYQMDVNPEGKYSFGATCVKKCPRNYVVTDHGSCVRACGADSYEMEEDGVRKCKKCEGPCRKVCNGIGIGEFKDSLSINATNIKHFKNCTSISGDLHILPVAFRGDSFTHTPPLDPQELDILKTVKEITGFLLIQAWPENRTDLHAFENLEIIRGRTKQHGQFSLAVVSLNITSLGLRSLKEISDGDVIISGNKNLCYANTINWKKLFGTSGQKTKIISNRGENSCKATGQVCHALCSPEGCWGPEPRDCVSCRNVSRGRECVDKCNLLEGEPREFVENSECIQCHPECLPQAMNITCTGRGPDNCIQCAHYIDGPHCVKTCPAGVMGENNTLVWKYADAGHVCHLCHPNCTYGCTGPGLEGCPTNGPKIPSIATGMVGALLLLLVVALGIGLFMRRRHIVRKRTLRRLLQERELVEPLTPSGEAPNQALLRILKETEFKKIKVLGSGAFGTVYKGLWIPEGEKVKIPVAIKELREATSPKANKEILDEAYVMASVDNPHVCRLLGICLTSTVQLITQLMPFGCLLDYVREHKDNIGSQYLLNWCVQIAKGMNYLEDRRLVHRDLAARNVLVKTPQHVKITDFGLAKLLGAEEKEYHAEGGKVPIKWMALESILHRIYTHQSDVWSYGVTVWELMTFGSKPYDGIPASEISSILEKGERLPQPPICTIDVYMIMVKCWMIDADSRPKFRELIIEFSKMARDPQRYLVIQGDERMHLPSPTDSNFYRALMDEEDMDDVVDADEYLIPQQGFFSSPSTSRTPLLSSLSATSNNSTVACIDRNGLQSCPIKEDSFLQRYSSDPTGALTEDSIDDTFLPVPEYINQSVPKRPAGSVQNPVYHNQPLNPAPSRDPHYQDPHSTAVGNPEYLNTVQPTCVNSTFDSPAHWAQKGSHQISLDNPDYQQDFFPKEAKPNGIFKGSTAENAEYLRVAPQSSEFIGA
# ASSAY EXPLANATION: Displacement of [gamma-32P]-ATP from Epidermal growth factor receptor in A431 cell-free extracts
pIC50: −log10 of the molar value.
MEASURED QUANTITY: pIC50

O=S(=O)(O)c1cc(NCc2cc(O)ccc2O)ccc1O | 4.99
CNC(=O)c1cc(NCc2cc(O)ccc2O)ccc1O | 5.01
CCCCCCCCCCCCCCNC(=O)c1cc(NCc2cc(O)ccc2O)ccc1O | 4.57
O=[N+]([O-])c1cc(NCc2cc(O)ccc2O)ccc1O | 5.27

I = CCCCCCNC(=O)c1cc(NCc2cc(O)ccc2O)ccc1O
II = Oc1ccc(NCc2cc(O)ccc2O)cc1
Between I and II , whose measured pIC50 reads higher? API: response body contains the label of the selected item.
I
